Sourced from patent US20230034584A1

- System: ERK1/2 Thr202/Tyr204-phosphorylation in human renal proximal tubular epithelial cells (RPTEC)
- assayProtocol: Phospho-ERK cellular assay (HTRF)
- Assay type: cell-based
- conditionDescription: human proximal tubular epithelial cells (immortalized RPTEC), pERK HTRF; read-out: IC50, inhibition of ERK phosphorylation
endpointLabel: IC50 (nM)
The response must be a number in nM with no trailing unit.

C[C@@H]1OCC2(CCN(c3cnc(Sc4ccnc(N)c4Cl)c(N)n3)CC2)[C@@H]1N | 46.4

## Input Need IC50 of CC1(N)CCN(c2cnc(-c3cccc(Cl)c3Cl)c(N)n2)CC1 , thanks.
## Output 306
